- Test system: peripheral blood mononuclear cells (PMBCs)
- Assay type: cell-based, human
- experimentalConditions: Vaccination GV1001 (n = 4)
attributeMeasured: T-cell responses to the individual peptide (patients), counted for SEQ ID NO: 116

[[record]]
sequencerecord = "TSRLRFIPKPDGLRP [Conjugate 730]"
numericvalue = 3

[[record]]
sequencerecord = "RPALLTSRLRFIPKP [Conjugate 714]"
numericvalue = 4

[[record]]
sequencerecord = "LKRVQLRELSEAEVRQ [Conjugate 731]"
numericvalue = 1

[[record]]
sequencerecord = "EAEVRQHREARPALL [Conjugate 713]"
numericvalue = 3

[[record]]
sequencerecord = "FIPKPDGLRPIVNMD [Conjugate 715]"
numericvalue = 1

